Where do these numbers come from? They come from PubChem BioAssay (NCI).

tested on: BT-549 breast; assay: NCI tumour cell line growth inhibition, 48 h
Below, each of the molecules is paired with its reported GI50 value.

Worked cases, GI50 given:
Record smiles | Experimental system | GI50
CN(C)/[N+]([O-])=N/Oc1cc(Nc2ccc(C(=O)O)cc2)c([N+](=O)[O-])cc1[N+](=O)[O-] | BT-549 breast | 18.5 µM
COc1cc2c(/C=C3\C(=O)Nc4ccc(Br)cc43)c(Cl)n(C)c2cc1C | BT-549 breast | 1.49 µM
Cn1c(=O)c(Cc2ccc(F)cc2F)cc2cnc(NC3CCOCC3)nc21 | BT-549 breast | > 16.6 µM
COc1ccc(-n2c(N)c(C(=O)NCCN3CCOCC3)c3nc4ccccc4nc32)cc1OC | BT-549 breast | 27.6 µM
NS(=O)(=O)c1ccc(-n2nc(-c3ccc(Cl)cc3)cc2C2=CC(=O)C=CC2=O)cc1 | BT-549 breast | 22.5 µM

I would be grateful if you could share the reported GI50 for C=C1C(=O)O[C@H]2[C@H]1CC/C(COC(=O)CCC(=O)OC/C1=C/CC[C@@]3(C)O[C@H]3[C@H]3OC(=O)C(=C)[C@@H]3CC1)=C\CC[C@@]1(C)O[C@@H]21 . 1.4 µM

I would be grateful if you could share the reported GI50 for Cc1c2c(nn1-c1ccc(S/N=C3\SCC(=O)CN3c3ccccc3)cc1)-c1ccccc1CC2 . 11.1 µM

I would be grateful if you could share the reported GI50 for Cc1ccc(/C=C2\CCOC2=O)cc1 . > 100 µM

I would be grateful if you could share the reported GI50 for Cn1cccc1-c1cc(-c2ccc(Br)cc2)nc(N)c1C#N . 69.7 µM

* * *

system: SN12C renal; assay: NCI tumour cell line growth inhibition, 48 h; in the data active = GI50 below about 0.43 µM; inactive = the rest
Valid outcomes are listed here; reply with one: True (active), False (inactive)

Compound | Group label
Cc1ccc(/C=C2\CCOC2=O)cc1 | False

In this assay, the call recorded for COC(=O)c1c(-c2ccccc2)csc1NC(=O)c1c(-c2ccccc2)noc1C was what? False

In this assay, the call recorded for Cc1ccc(Cl)cc1Nc1nc(C(F)(F)F)ccc1C(=O)Oc1ccc(Cl)cc1 was what? False

In this assay, the call recorded for N#C/C(=C/N1CCN(C(=O)c2ccco2)C1=S)C(N)=O was what? False

In this assay, the call recorded for CN(C)/[N+]([O-])=N/Oc1cc(Nc2ccc(C(=O)O)cc2)c([N+](=O)[O-])cc1[N+](=O)[O-] was what? False

* * *

system: UO-31 renal; test: NCI tumour cell line growth inhibition, 48 h
Measured attribute: GI50

Compound | Experimental system | Readout value
CC(O)CN(CCN(CC(C)O)CC(C)O)CC(C)O.O=[N+]([O-])O.[Cu+2] (centres undefined) | UO-31 renal | > 100 µM
N#C/C(=C/N1CCN(C(=O)c2ccco2)C1=S)C(N)=O | UO-31 renal | 23.5 µM
Cc1nc2cc(O)c(O)cc2cc1Oc1ccc(NC(=O)Nc2ccc(Cl)c(Cl)c2)cc1 | UO-31 renal | 6.97 µM

Query GI50 on UO-31 renal for COC(=O)c1ccc2c(c1)nc(-c1ccc(Cl)cc1)n2-c1cc(C(C)(C)C)[nH]n1 3.35 µM

* * *

test system: OVCAR-3 ovarian; assay: NCI tumour cell line growth inhibition, 48 h; in the data active = GI50 below about 0.43 µM; inactive = the rest
Valid outcomes are listed here; reply with one: class 1 = active, class 0 = inactive

Example results:
Compound | Group label
CC1=C(C(=O)Nc2ccc(F)c(Cl)c2)C(c2cccc(Cl)c2)NC(=O)N1 (stereo unspecified) | class 0
O=C1NC(=NCc2ccccn2)S/C1=C\c1ccc2ncccc2c1 | class 0
COC(=O)c1ccc2c(c1)nc(-c1ccc(Cl)cc1)n2-c1cc(C(C)(C)C)[nH]n1 | class 0

In this assay, the call recorded for COc1ccc(C2CC(c3cc(OC)c(OC)c(OC)c3)=NN2)cc1 (stereo unspecified) was what? class 0

In this assay, the call recorded for CN(C)CCn1cc(-c2ccc3c(Nc4ccc(CC(=O)Nc5cccc(F)c5)cc4)ncnc3c2)cn1 was what? class 0

In this assay, the call recorded for C=C1C(=O)O[C@H]2[C@H]1CC/C(COC(=O)CCC(=O)OC/C1=C/CC[C@@]3(C)O[C@H]3[C@H]3OC(=O)C(=C)[C@@H]3CC1)=C\CC[C@@]1(C)O[C@@H]21 was what? class 0

In this assay, the call recorded for O=Cc1ccc(C(F)(F)F)cc1.[C-]#[O+].[C-]#[O+].[C-]#[O+].[Cr] was what? class 0

In this assay, the call recorded for CC(O)CN(CCN(CC(C)O)CC(C)O)CC(C)O.O=[N+]([O-])O.[Cu+2] (stereo unspecified) was what? class 0
